- targetOfAssay: MMP-13 (Homo sapiens)
- Construct: made in house; host or cells: baculovirus / insect cells
- protocolText: biochemical
- condition: recombinant human MMP-13, MCA peptide substrate 4 μM, pH 7.5, room temperature; read-out: MMP-13 IC50
Where a name gives a salt, the structure may show the parent alone.
Measured IC50 by item
experimentalReadout: IC50 (µM)

{"compound": "CC1CC(C)CN(C(=O)C2CCN(c3ccc(S(=O)(=O)C4(C(=O)NO)CCN(C(=O)CN5CCN(CCN6CCOCC6)CC5)CC4)cc3)CC2)C1 (centres unmarked)", "targetOfAssay": "MMP-13 (Homo sapiens)", "valuePrefix": "=", "endpointResult": 0.06}
{"compound": "O=C(NO)C1(S(=O)(=O)c2ccc(Oc3ccc(C(F)(F)F)cc3)cc2)CCN(c2ccccn2)CC1", "targetOfAssay": "MMP-13 (Homo sapiens)", "valuePrefix": "=", "endpointResult": 0.0009}
{"compound": "O=C(CCCCN1CCNCC1)N1CCC(C(=O)NO)(S(=O)(=O)c2ccc(Oc3ccc(C(F)(F)F)cc3)cc2)CC1", "targetOfAssay": "MMP-13 (Homo sapiens)", "valuePrefix": "=", "endpointResult": 0.0017}
{"compound": "O=C(NO)C1(S(=O)(=O)c2ccc(N3CCN(CCO)CC3)cc2)CCOCC1", "targetOfAssay": "MMP-13 (Homo sapiens)", "valuePrefix": "=", "endpointResult": 0.35}
{"compound": "CC1CC(C)CN(C(=O)C2CCN(c3ccc(S(=O)(=O)C4(C(=O)NO)CCN(C(=O)CNCCO)CC4)cc3)CC2)C1 (centres unmarked)", "targetOfAssay": "MMP-13 (Homo sapiens)", "valuePrefix": "=", "endpointResult": 0.06}
{"compound": "Cc1cccc(S(=O)(=O)N2CCN(c3ccc(S(=O)(=O)C4(C(=O)NO)CCOCC4)cc3)CC2)c1", "targetOfAssay": "MMP-13 (Homo sapiens)", "valuePrefix": "=", "endpointResult": 0.006}
{"compound": "COCCN1CCC(C(=O)NO)(S(=O)(=O)c2ccc(N3CCC(C(=O)NCc4ccccc4)CC3)cc2)CC1 [Example 247, Monohydrochloride]", "targetOfAssay": "MMP-13 (Homo sapiens)", "valuePrefix": "=", "endpointResult": 0.0345}
{"compound": "Cc1ccc(C(=O)C2CCN(c3ccc(S(=O)(=O)C4(C(=O)NO)CCOCC4)cc3)CC2)cc1F", "targetOfAssay": "MMP-13 (Homo sapiens)", "valuePrefix": "=", "endpointResult": 0.0009}
{"compound": "O=C(Cc1ccccc1)C1CCN(c2ccc(S(=O)(=O)C3(C(=O)NO)CCOCC3)cc2)CC1", "targetOfAssay": "MMP-13 (Homo sapiens)", "valuePrefix": "=", "endpointResult": 0.003}
{"compound": "O=C(NO)C1(S(=O)(=O)c2ccc(N3CCN(S(=O)(=O)c4cccc(C(F)(F)F)c4)CC3)cc2)CCOCC1", "targetOfAssay": "MMP-13 (Homo sapiens)", "valuePrefix": "=", "endpointResult": 0.0077}
{"compound": "CC(=O)N1CCN(c2ccc(S(=O)(=O)C3(C(=O)NO)CCOCC3)cc2)CC1", "targetOfAssay": "MMP-13 (Homo sapiens)", "valuePrefix": "=", "endpointResult": 0.27}
{"compound": "CNC(=S)N1CCC(C(=O)NO)(S(=O)(=O)c2ccc(Oc3ccc(OC(F)(F)F)cc3)cc2)CC1", "targetOfAssay": "MMP-13 (Homo sapiens)", "valuePrefix": "=", "endpointResult": 0.000375}
{"compound": "O=C(NO)C1(S(=O)(=O)c2ccc(N3CCC(Oc4cc(F)c([N+](=O)[O-])c(F)c4)CC3)cc2)CCOCC1", "targetOfAssay": "MMP-13 (Homo sapiens)", "valuePrefix": "=", "endpointResult": 0.0553}
{"compound": "O=C(NO)C1(S(=O)(=O)c2ccc(N3CCC(Sc4ccc(OC(F)(F)F)cc4)CC3)cc2)CCN(C2CC2)CC1", "targetOfAssay": "MMP-13 (Homo sapiens)", "valuePrefix": "=", "endpointResult": 0.0504}
{"compound": "O=C(CCCCN1CCOCC1)N1CCC(C(=O)NO)(S(=O)(=O)c2ccc(Oc3ccc(C(F)(F)F)cc3)cc2)CC1", "targetOfAssay": "MMP-13 (Homo sapiens)", "valuePrefix": "=", "endpointResult": 0.0009}
{"compound": "O=C(NO)C1(S(=O)(=O)c2ccc(N3CC4CC3CN4c3cccc(F)c3)cc2)CCOCC1 (centres unmarked)", "targetOfAssay": "MMP-13 (Homo sapiens)", "valuePrefix": ">", "endpointResult": 10}
{"compound": "O=C(Nc1ccccc1)OC1CCN(c2ccc(S(=O)(=O)C3(C(=O)NO)CCOCC3)cc2)CC1", "targetOfAssay": "MMP-13 (Homo sapiens)", "valuePrefix": "=", "endpointResult": 0.008}
{"compound": "O=C(NO)C1(S(=O)(=O)c2ccc(C3=CCC(c4ccccc4)CC3)cc2)CCOCC1 (centres unmarked)", "targetOfAssay": "MMP-13 (Homo sapiens)", "valuePrefix": "=", "endpointResult": 0.0015}
{"compound": "CN(C)c1ccc(NC(=O)C2CCN(c3ccc(S(=O)(=O)C4(C(=O)NO)CCOCC4)cc3)CC2)cc1", "targetOfAssay": "MMP-13 (Homo sapiens)", "valuePrefix": "=", "endpointResult": 0.0117}
{"compound": "CC(C)CCOCc1ccc(COC2CCN(c3ccc(S(=O)(=O)C4(C(=O)NO)CCOCC4)cc3)CC2)cc1", "targetOfAssay": "MMP-13 (Homo sapiens)", "valuePrefix": "=", "endpointResult": 0.009}
{"compound": "O=C(Nc1ccccc1Cl)OC1CCN(c2ccc(S(=O)(=O)C3(C(=O)NO)CCOCC3)cc2)CC1", "targetOfAssay": "MMP-13 (Homo sapiens)", "valuePrefix": "=", "endpointResult": 0.0035}
{"compound": "O=C(c1ccco1)N1CCC(C(=O)NO)(S(=O)(=O)c2ccc(N3CCC(OCc4ccc(Cl)cc4)CC3)cc2)CC1", "targetOfAssay": "MMP-13 (Homo sapiens)", "valuePrefix": "=", "endpointResult": 0.0139}
{"compound": "CC1CCCCN1c1ccc(S(=O)(=O)C2(C(=O)NO)CCOCC2)cc1 (centres unmarked)", "targetOfAssay": "MMP-13 (Homo sapiens)", "valuePrefix": "=", "endpointResult": 5.4}
{"compound": "CC(C)N1CCC(C(=O)NO)(S(=O)(=O)c2ccc(N3CCC(SCc4ccc(OC(F)(F)F)cc4)CC3)cc2)CC1", "targetOfAssay": "MMP-13 (Homo sapiens)", "valuePrefix": "=", "endpointResult": 0.0029}
{"compound": "Cc1ccc(S(=O)(=O)N2CCN(c3ccc(S(=O)(=O)C4(C(=O)NO)CCOCC4)cc3)CC2)cc1", "targetOfAssay": "MMP-13 (Homo sapiens)", "valuePrefix": "=", "endpointResult": 0.008}
{"compound": "O=C(NO)C1(S(=O)(=O)c2ccc(N3CCC(OCc4cccc(C(F)(F)F)c4)CC3)cc2)CCN(C2CC2)CC1", "targetOfAssay": "MMP-13 (Homo sapiens)", "valuePrefix": "=", "endpointResult": 0.0158}
{"compound": "CN(C)CCN(C)C(=O)C1CCN(c2ccc(S(=O)(=O)C3(C(=O)NO)CCOCC3)cc2)CC1", "targetOfAssay": "MMP-13 (Homo sapiens)", "valuePrefix": "=", "endpointResult": 0.37}
{"compound": "C#CCN1CCC(C(=O)NO)(S(=O)(=O)c2ccc(S(=O)(=O)c3ccccc3)cc2)CC1", "targetOfAssay": "MMP-13 (Homo sapiens)", "valuePrefix": "=", "endpointResult": 1.8}
{"compound": "O=C(NO)C1(S(=O)(=O)c2ccc(N3CCC(n4c(=O)[nH]c5ccccc54)CC3)cc2)CCOCC1", "targetOfAssay": "MMP-13 (Homo sapiens)", "valuePrefix": "=", "endpointResult": 0.0114}
